Assignment: determine reported Effects Annual bluegrass for the given molecules.
# System: annual bluegrass
# protocol_details: Foliar spread test for upland field
# Type: in vivo, Poa annua
# Design: key: 0: normal development; 1: Less damaged; 2: Slightly damaged; 3: Moderately damaged; 4: Severely damaged; 5: All killed
# condition_info: foliar spray 500 ppm, 3 weeks, rank vs non-treated

Recorded results for 6 molecules are shown here.
CCC(Oc1cccc(C(F)(F)F)c1)c1nc2cc(F)c(C(F)(F)F)cc2o1 (centres unmarked) :: 3
CCC(Oc1ccc(F)c(C(F)(F)F)c1)c1nc2cc(I)ccc2o1 (centres unmarked) :: 3
CCCC(Oc1cccc(C(F)(F)F)c1)c1nc2cc(C#N)c(Cl)cc2o1 (centres unmarked) :: 4
CCC(Oc1ccc(F)c(C(F)(F)F)c1)c1nc2cc(C(F)(F)F)ccc2o1 (centres unmarked) :: 2
CCC(Oc1ccc(F)c(C(F)(F)F)c1)c1nc2cc(Cl)c(C)cc2o1 (centres unmarked) :: 3
CCCC(Oc1cccc(C(F)(F)F)c1)c1nc2cc(F)c(C(F)(F)F)cc2o1 (centres unmarked) :: 3

Count: 2. Required value per item: Effects Annual bluegrass.
1. CCCC(Oc1cccc(C(F)(F)F)c1)c1nc2cc(F)c(Cl)cc2o1 (centres unmarked)
2. CCC(Oc1cccc(OC(F)(F)F)c1)c1nc2cc(C#N)c(C#N)cc2o1 (centres unmarked)

Reply |
2
5

###

# System: Large crabgrass
# protocol_details: Soil treatment test for upland field
# Format: in vivo, Digitaria adscendens
# Parameters: key: 0: normal development; 1: Less damaged; 2: Slightly damaged; 3: Moderately damaged; 4: Severely damaged; 5: All killed
# condition_info: 500 g/ha, glass house 25° C., 3 weeks
parameter_measured: Effects Large crabgrass
Numbers only.

Recorded results for 8 compounds are shown here.
CCC(Oc1cccc(C#N)c1)c1nc2cc(Cl)c(C)cc2o1 (stereo not drawn) :: 5
CCC(Oc1ccc(F)c(C(F)(F)F)c1)c1nc2ccc(C(F)(F)F)cc2o1 (stereo not drawn) :: 5
CCC(Oc1ccc(F)c(C(F)(F)F)c1)c1nc2ccc([N+](=O)[O-])cc2o1 (stereo not drawn) :: 4
CCC(Oc1cccc(OC(F)(F)F)c1)c1nc2cc(Cl)ccc2o1 (stereo not drawn) :: 5
CCCC(Oc1cccc(C#N)c1)c1nc2cc(Cl)c(C)cc2o1 (stereo not drawn) :: 5
CCC(Oc1ccc(F)c(C(F)(F)F)c1)c1nc2cc(F)c(Cl)cc2o1 (stereo not drawn) :: 5
CCC(Oc1ccc(F)c(C(F)(F)F)c1)c1nc2cc(OC)ccc2o1 (stereo not drawn) :: 5
CCC(Oc1cccc(OC(F)(F)F)c1)c1nc2cc(C#N)ccc2o1 (stereo not drawn) :: 5

Count: 6. Required value per item: Effects Large crabgrass.
1. CCC(Oc1ccc(F)c(C(F)(F)F)c1)c1nc2cc(C(F)(F)F)ccc2o1 (stereo not drawn)
2. CCCC(Oc1cccc(C#N)c1)c1nc2cc(S(C)(=O)=O)ccc2o1 (stereo not drawn)
3. CCC(Oc1cccc(C(F)(F)F)c1)c1nc2ccc(Cl)cc2o1 (stereo not drawn)
4. CCCC(Oc1ccc(F)c(C(F)(F)F)c1)c1nc2cc(S(C)(=O)=O)ccc2o1 (stereo not drawn)
5. CCCCC(Oc1ccc(F)c(C(F)(F)F)c1)c1nc2cc(Cl)ccc2o1 (stereo not drawn)
6. CCC(Oc1cccc(C(F)(F)F)c1)c1nc2cc(C#N)ccc2o1 (stereo not drawn)

Reply |
1: 5; 2: 4; 3: 5; 4: 5; 5: 3; 6: 5

Count: 2. Required value per item: Effects Large crabgrass.
1. CCC(Oc1ccc(F)c(C(F)(F)F)c1)c1nc2cc(I)ccc2o1 (stereo not drawn)
2. CCC(Oc1cccc(C#N)c1)c1nc2cc(C#N)ccc2o1 (stereo not drawn)

Reply |
1. 5
2. 5

Count: 2. Required value per item: Effects Large crabgrass.
1. CCCC(Oc1ccc(F)c(C(F)(F)F)c1)c1nc2cc(C(F)(F)F)ccc2o1 (stereo not drawn)
2. CCCC(Oc1ccc(F)c(C(F)(F)F)c1)c1nc2cc(C#N)c(C#N)cc2o1 (stereo not drawn)

Reply |
5
2
